- Tested on: Fibroblast
- EXPERIMENT_SUMMARY: Multiplex assay against human fibroblast
- Format: toxicity, cell-based
- COND: 48 h, 10 µM, compound concentration 10 uM, replicate 2
// Population Healthy Nuclei (%) lookup, one value per entry
Use % as the unit, but write only the number.

In the examples that follow, each entry is paired with its recorded Population Healthy Nuclei (%).
What measured Population Healthy Nuclei (%) goes with C=CC(=O)Nc1cccc(C(=O)Nc2ccc(Nc3cc(-c4[nH]c(SC)nc4C)ccn3)cc2)c1 ? 57

What do you have for Cl.N#Cc1ccc2[nH]cc(CCCCN3CCN(c4ccc5oc(C(N)=O)cc5c4)CC3)c2c1 [VILAZODONE HYDROCHLORIDE] ? 34

What do you have for CNCc1ccccc1-c1csc([C@H](C)Nc2nc(C)nc3cc(OC)c(OC)cc23)c1 ? 8

What do you have for Cc1csc2c(N[C@@H](C)CN3CCN(S(=O)(=O)c4ccc(Cl)c(Cl)c4)CC3)ncnc12 ? 47

What do you have for COc1cc(-n2cnc3cc(-c4ccc(Cl)cc4)sc3c2=O)ccc1OCCN1CCCC1 ? 53

What do you have for Cc1nc(-c2ccc(-c3ccc(C(=O)N4CCc5cc6c(cc54)C4(CCN(C)CC4)CO6)cc3)c(C)c2)no1 ? 15

What do you have for Cc1c(-c2ccc(O)cc2)n(Cc2ccc(OCCN3CCCCCC3)cc2)c2ccc(O)cc12 ? 37

Now let's try a different one.
What measured Population Healthy Nuclei (%) goes with CN1CCN(CCOc2cc(OC3CCOCC3)c3c(Nc4c(Cl)ccc5c4OCO5)ncnc3c2)CC1 ? 55
